# Species on record: Rattus norvegicus
# method: Inhibition of rat intestinal alpha-glucosidase activity at 100 ugmL
List of inhibition values.

Below: 5 molecules and their reported inhibition.
Entry "CC1=CC(=O)[C@H]2C(C)(C)CCC[C@]2(C)[C@H]1/C=C/c1ccoc1" , inhibition reported as 55.6%

// "CO[C@@H]1OC(=O)C=C1/C=C/[C@H]1C(C)=CC(=O)[C@H]2C(C)(C)CCC[C@]12C" : inhibition value = 54.1%

Entry under test: "CC1=C(O)C(=O)[C@H]2C(C)(C)CCC[C@]2(C)[C@H]1/C=C/c1ccoc1" . Its inhibition was 13.5%

Reported inhibition for "CC(=O)OC1=C(C)[C@H](/C=C/c2ccoc2)[C@@]2(C)CCCC(C)(C)[C@@H]2C1=O" was 25.7%

Lookup result for "CC1(C)CCC[C@]2(C)[C@@H](/C=C/c3ccoc3)C(CO)=CC(=O)[C@@H]12" ; measured inhibition: 15.1%

Others:
Record C=C1[C@@H](O)CC2C(C)(C)CCC[C@]2(C)[C@H]1C/C=C1\CCOC1=O (some centres undefined) . Reported inhibition: 11.3%

Item: CC1=CC(=O)[C@H]2C(C)(C)CCC[C@]2(C)[C@H]1/C=C/C1=CC(=O)O[C@H]1O [SPICATANOL] | inhibition: 89.5%

molecule "CC1=CC(=O)[C@H]2C(C)(C)CCC[C@]2(C)[C@H]1/C=C/C1=CC(=O)OC1" , inhibition observed: 35.1%
